system: T1, CD3E-human Fc protein (Sino Biological) (UniProt P07766 23-126)
T1 chain: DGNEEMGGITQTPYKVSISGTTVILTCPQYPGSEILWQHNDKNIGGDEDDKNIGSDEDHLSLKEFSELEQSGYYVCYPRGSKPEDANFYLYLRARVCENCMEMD
method_summary: BLI (Octet)
quantity: Kd (nM)
Write the answer as a number in nM, unit excluded.

Ask: Identify measured Kd corresponding to ITPRIPL1-RBD recombinant protein (human ITPRIPL1 extracellular domain, 25-103 amino acids, C-terminal 6x-His and Myc tags, Cusabio, from yeast) (ligand, also called IT1-RBD protein; ITPRIPL1-RBD-6x-His recombinant protein; not shown: 6x-His and Myc tags at the C terminus) HPLMVSDRMDLDTLARSRQLEKRMSEEMRLLEMEFEERKRAAEQRQKAENFWTGDTSSDQLVLGKKDMGWPFQADGQEG
Reply: 318
